- Measured On: DNA gyrase subunit A (Staphylococcus aureus, UniProt P20831, M121K)
- Protocol Details: Inhibition of Staphylococcus aureus DNA gyrase M121K mutant
pIC50: −log10 of the molar value.
Measurement Type: pIC50

COc1ccc2nccc([C@@H](O)CC[C@@H]3CCN(C4CC(c5ccccc5)C4)C[C@@H]3C(=O)O)c2c1 (stereo partly specified) | < 3.70

---

- Tested on: Staphylococcus aureus
- Protocol Details: Antibacterial activity against Staphylococcus aureus
- Format: functional
Reported MIC90 values for a set of compounds
Measurement Type: MIC90 (µg/mL)

COc1ccc2nccc([C@@H](O)CC[C@@H]3CCN(C4CC(c5c(F)cccc5F)C4)C[C@@H]3C(=O)O)c2c1 (stereo not given in full) | 0.25
COc1ccc2nccc([C@@H](O)CC[C@@H]3CCN(C4CC(c5ccccc5)C4)C[C@@H]3C(=O)O)c2c1 (stereo not given in full) | 0.25
COc1ccc2nccc([C@@H](O)CC[C@@H]3CCN(C4CC(c5cc(F)ccc5F)C4)C[C@@H]3C(=O)O)c2c1 (stereo not given in full) | 0.25
COc1ccc2ncc(F)c([C@@H](O)CC[C@@H]3CCN(CCSc4cccs4)C[C@@H]3C(=O)O)c2c1 | 0.125
